Test system: CAL-148
TEST SUMMARY: normalised viability (% of control), CellTiter-Blue; higher = more viable cells (about 100 = DMSO control)
MEASUREMENT CONDITIONS: incubation time: 72 h
Mark true for normalised viability under 70%, false if at or over.

COMPOUND: CO[C@@]12[C@H](COC(N)=O)C3=C(C(=O)C(C)=C(N)C3=O)N1C[C@@H]1N[C@@H]12 [Mitomycin C] (10000 nM)
SYSTEM: CAL-148
DISCRETE LABEL: true

COMPOUND: CC(=O)[C@]1(O)Cc2c(O)c3c(c(O)c2[C@@H](O[C@H]2C[C@H](N)[C@H](O)[C@H](C)O2)C1)C(=O)c1ccccc1C3=O [Idarubicin] (1000 nM)
SYSTEM: CAL-148
DISCRETE LABEL: true

COMPOUND: Cc1cc(Nc2nc(N[C@@H](C)c3ncc(F)cn3)ncc2Cl)[nH]n1 [AZD1480] (1000 nM)
SYSTEM: CAL-148
DISCRETE LABEL: false

COMPOUND: COc1ccc(S(=O)(=O)Nc2cccnc2Nc2ccc(O)cc2)cc1 [ABT-751] (10000 nM)
SYSTEM: CAL-148
DISCRETE LABEL: true

COMPOUND: CO[C@@H]1[C@H](N(C)C(=O)c2ccccc2)C[C@H]2O[C@]1(C)n1c3ccccc3c3c4c(c5c6ccccc6n2c5c31)C(=O)NC4 [Midostaurin] (10000 nM)
SYSTEM: CAL-148
DISCRETE LABEL: false

COMPOUND: Cn1cc(C2=C(c3cn(C4CCN(Cc5ccccn5)CC4)c4ccccc34)C(=O)NC2=O)c2ccccc21 [Enzastaurin] (10000 nM)
SYSTEM: CAL-148
DISCRETE LABEL: true

COMPOUND: COc1c2occc2cc2ccc(=O)oc12 [Methoxsalen] (10000 nM)
SYSTEM: CAL-148
DISCRETE LABEL: true
